# System: SN12C renal
# assay.info: NCI tumour cell line growth inhibition, 48 h; in the data active means GI50 below about 0.43 µM; inactive means the rest
Valid outcomes are listed here; reply with one: true (active), false (inactive)

- compound: "CC(=N\\O)/C(C)=N/O.CC(=N\\O)/C(C)=N/O.[Fe].[NH2-].c1c[nH]cn1"
  assigned.category: "false"
- compound: "O=C(COc1cccc(/C=C2\\Oc3ccc4ccccc4c3C2=O)c1)c1ccc([N+](=O)[O-])cc1"
  assigned.category: "false"
- compound: "CCC(=C(c1ccc(OCCN2CCCC2)cc1)c1ccc(OCCN2CCCC2)cc1)c1ccc(Cl)cc1"
  assigned.category: "false"

Exercise: Record lookup: outcome of this test for COc1cc(/C=C/c2ccnc3ccccc23)cc(OC)c1OC ?
Solution: false

Exercise: Record lookup: outcome of this test for CCCCC[C@H]1C/C=C2/C(=O)C(Cl)=C[C@@H]2C/C=C\CCCC(=O)O1 ?
Solution: true

Exercise: Record lookup: outcome of this test for CC[Si](CC)(CC)OC1[C@@H](O[Si](CC)(CC)CC)[C@@H](CNC(=O)NC)O[C@H]1n1cnc2c(NC(=O)Nc3ccccc3)ncnc21 (stereo partly drawn) ?
Solution: false

Exercise: Record lookup: outcome of this test for C(=C\c1ccc(OCC2CO2)cc1)/C1=NCOC1 (stereo not drawn) ?
Solution: false

Exercise: Record lookup: outcome of this test for Clc1ccc(N2N=C(c3cccc(Nc4ccncc4)c3)CC2c2ccc(Br)cc2)cc1 (stereo not drawn) ?
Solution: false
